experiment.notes: in vitro
setup.conditions: human, fresh human red blood cells (washed), pH 7.4
Non-standard residues stand in square brackets, D forms with d. Residues, ends and D or L forms follow the SMILES beside them. d2Nal = N[C@H](Cc1ccc2ccccc2c1)C(=O)O
result.type: HC50 at 0.5 h (µg/mL)
Answers are plain numbers, in µg/mL.

query: Endpoint output: HC50 at 0.5 h of NCCCC[C@@H]1NC(=O)[C@@H](CCCCN)NC(=O)[C@H](CCCCN)NC(=O)[C@@H](CCCCN)NC(=O)[C@@H](Cc2ccc3ccccc3c2)NC(=O)[C@@H](Cc2ccc3ccccc3c2)NC(=O)[C@H](Cc2c[nH]c3ccccc23)NC1=O [IFX-128, c[lys-Lys-lys-Lys-Trp-naI-naI]] (cyclo(KW[d2Nal][d2Nal][dK]K[dK])) . Value?
result: 590

###

Tested on: Pseudomonas aeruginosa (ATCC 27883)
setup.conditions: ATCC 27883
Non-standard residues stand in square brackets, D forms with d. Residues, ends and D or L forms follow the SMILES beside them. Dip = N[C@H](C(=O)O)C(c1ccccc1)c1ccccc1; 2Nal = N[C@@H](Cc1ccc2ccccc2c1)C(=O)O; d2Nal = N[C@H](Cc1ccc2ccccc2c1)C(=O)O
result.type: MIC P. aeruginosa ATCC 27883 (µg/mL)
Give bare numbers, in µg/mL.

Solved entries:
molecule	measured.target	reported.measurement
N=C(N)NCCC[C@H](NC(=O)[C@H](CCCNC(=N)N)NC(=O)[C@H](CCCNC(=N)N)NC(=O)[C@@H](N)CCCNC(=N)N)C(=O)N[C@@H](CCCNC(=N)N)C(=O)N[C@H](C(=O)N[C@H](C(=O)N[C@H](C(=O)O)C(c1ccccc1)c1ccccc1)C(c1ccccc1)c1ccccc1)C(c1ccccc1)c1ccccc1 [IFX-012-1, NH2-Arg-Arg-Arg-Arg-Arg-Dip-Dip-Dip-OH] (H-RRRRR[Dip][Dip][Dip]-OH)	Pseudomonas aeruginosa (ATCC 27883)	50
N=C(N)NCCC[C@@H]1NC(=O)[C@H](CCCNC(=N)N)NC(=O)[C@@H](CCCNC(=N)N)NC(=O)[C@@H](CCCNC(=N)N)NC(=O)[C@@H](Cc2ccc3ccccc3c2)NC(=O)[C@@H](Cc2ccc3ccccc3c2)NC(=O)[C@H](Cc2c[nH]c3ccccc23)NC1=O [IFX-117, c[arg-arg-Arg-Arg-Trp-naI-naI]] (cyclo([dR][dR]RRW[d2Nal][d2Nal]))	Pseudomonas aeruginosa (ATCC 27883)	32

Now look at this one.
query: # MIC P. aeruginosa ATCC 27883 lookup, item N=C(N)NCCC[C@H](NC(=O)[C@H](CCCNC(=N)N)NC(=O)[C@@H](N)CCCNC(=N)N)C(=O)N[C@@H](Cc1ccc2ccccc2c1)C(=O)N[C@@H](Cc1c[nH]c2ccccc12)C(=O)N[C@@H](Cc1ccc2ccccc2c1)C(=O)O [IFX-024-1, NH2-R-R-R-NaI-Trp-NaI-OH] (H-RRR[2Nal]W[2Nal]-OH)
result: 25

###

System: A. baumannii (ATCC BAA-1605)
experiment.notes: Broad-spectrum activity against Gram-Negative bacteria (MIC)
Format: cell-based
setup.conditions: Table 16, Gram-negative panel
result.type: MIC A. baumannii (ATCC BAA-1605) (µg/mL)
Give bare numbers, in µg/mL.

In the examples that follow, each entry is paired with its recorded MIC A. baumannii (ATCC BAA-1605).
> print(dat)
                                  substance  reported.measurement
1  c[Arg-Arg-Arg-Arg-Dip-Trp-dip] [IFX-088]                  12.5
2  c[Arg-Arg-arg-Arg-Dip-Trp-Dip] [IFX-092]                  12.5
3  c[Arg-Arg-Arg-Arg-dip-Trp-Dip] [IFX-090]                  12.5

Batch request: MIC A. baumannii (ATCC BAA-1605) for each of the following substances.
1. c[Arg-Arg-Arg-arg-Dip-Trp-Dip] [IFX-091]
2. c[arg-Arg-Arg-Arg-Dip-Trp-Dip] [IFX-094]
3. c[Arg-Arg-Arg-Arg-Dip-trp-Dip] [IFX-089]
4. c[Arg-Arg-Arg-Arg-dip-trp-dip] [IFX-100]
5. c[Arg-arg-Arg-Arg-Dip-Dip-Dip] [IFX-065]
6. c[Arg-Arg-Arg-Arg-Dip-dip-Dip] [IFX-061]
7. c[Arg-Arg-Arg-Arg-dip-Dip-Dip] [IFX-062]

result:
1: 12.5; 2: 12.5; 3: 12.5; 4: 12.5; 5: 6.2; 6: 6.2; 7: 6.2

Value sought for every listed substance: MIC A. baumannii (ATCC BAA-1605).
1. c[Arg-arg-Arg-Arg-Dip-Trp-Dip] [IFX-093]
2. c[Arg-Arg-Arg-Arg-dip-Trp-dip] [IFX-098]
3. c[Arg-Arg-Arg-Arg-naI-trp-naI] [IFX-143]
4. c[Arg-Arg-arg-Arg-Dip-Dip-Dip] [IFX-064]
5. c[Arg-Arg-Arg-Arg-Dip-Dip-dip] [IFX-060]
6. c[Arg-Arg-Arg-arg-Dip-Dip-Dip] [IFX-063]
7. c[arg-Arg-Arg-Arg-Dip-Dip-Dip] [IFX-066]

result:
1: 12.5; 2: 12.5; 3: 12.5; 4: 6.2; 5: 6.2; 6: 6.2; 7: 6.2

Hello, the source for this data is patent US20220289794A1, in case you need it.
